Tested Target: T1, Pf12 labelled with DyLight 488 (Plasmodium falciparum (sequence as 3D7), DyLight 488 (N-hydroxysuccinimide ester), about 2.4 dye per protein)
T1 construct: Pf12, Plasmodium falciparum 6-cysteine protein; The FRET methods say only 'Pf12'; also called Pf12-DL488
T1 chain: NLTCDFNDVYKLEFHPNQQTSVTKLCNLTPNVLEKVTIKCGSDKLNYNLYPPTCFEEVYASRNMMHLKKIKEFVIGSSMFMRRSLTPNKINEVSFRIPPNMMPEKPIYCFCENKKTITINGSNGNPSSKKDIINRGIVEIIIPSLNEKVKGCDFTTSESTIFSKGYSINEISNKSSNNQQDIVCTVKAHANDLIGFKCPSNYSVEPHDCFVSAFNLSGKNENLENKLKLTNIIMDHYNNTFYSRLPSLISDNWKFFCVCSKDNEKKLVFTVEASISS
Procedure Details: FRET or BRET; Pf12-DL488 and Pf41-DL594 mixed 1:1 with five-fold excess of nanobody; FRET signal relative to the no-nanobody control
Settings: both partners purified
Recorded percent reduction of the Pf12-Pf41 FRET signal by entry
Measured Parameter: percent reduction of the Pf12-Pf41 FRET signal

binder="nanobody H9 (VHH, alpaca, immunised with Pf12-Pf41 complex; Pf12-specific; source: E. coli WK6, periplasmic extract, purified (HisTrap, SEC)) VHH: QVQLQESGGGLVQPGGSLRLSCAASGFTLDYYAIGWFRQAPGKEREGVSCIMSSDGSTYYADSVKGRFTISRDNAVNTVYLQMNGLKPEDTAVYYCATDKIVCGSGFIVDYGTDYRGKGTQVTVSS" result=~90%
binder="nanobody A3 (VHH, alpaca, immunised with Pf12-Pf41 complex; Pf12-specific; source: E. coli WK6, periplasmic extract, purified (HisTrap, SEC)) VHH: QVQLQESGGGLVQAGGSLRLSCAASGRTFSNYAMGWFRQAPGKEREFVAAITWSGDSTYYGDSVKGRFTISRDNAKSTAYLQMNSLKPEDTAVYYCAADEAVVTTTLQWDYWGQGTQVTVSS" result=~90%
binder="nanobody G7 (VHH, alpaca, immunised with Pf12-Pf41 complex; Pf12-specific; also called Nb G7; source: E. coli WK6, periplasmic extract, purified (HisTrap, SEC)) VHH: QVQLQESGGGLVQAGGSLRLSCAASGRTFSSYGMGWFRQAPGTEREFVAAISWSGDSTYYADSVKGRFTISIDKAKNTVYLQMNSLKPEDTAVYYCAADHALVVGGTYNYWGQGTQVTVSS" result=~80%
binder="nanobody A11 (VHH, alpaca, immunised with Pf12-Pf41 complex; Pf12-specific; source: E. coli WK6, periplasmic extract, purified (HisTrap, SEC)) VHH: QVQLQESGGGLVQPGGSLRLSCAASGFTFDDYAIGWFRQAPGKEREGVSCIMSSDGSAYYADSVKGRFTISRDNAKNTVYLQMNSLRPEDTANYYCATDKIVCSTGFIVDYGMHYGGKGTQVTVSS" result=~90%
